# Test system: A549/ATCC NSCLC
# experimentalDetails: NCI-60 one-dose screen, 48 h
# recordedConditions: 10 µM unless noted
About 83,000 compounds went through this panel and 20% of them were active in at least one assay; those are over-represented in the sample as a whole. Calls of active or inactive are those of the source. The calls were made as follows: active = growth percent below 10; inactive = the rest.
Just give me one of these, please: t for active, f for inactive

Some entries whose results are on file:
[[record]]
compound = "CCCCCCCCCCCC[n+]1ccc(CCCCCCCCC)cc1"
answerlabel = "t"

[[record]]
compound = "CCC(C)(O)Cc1ccc(Cl)cc1 (stereo not drawn)"
answerlabel = "f"

[[record]]
compound = "Cc1ccc(Nc2ccc(O)c3c2C(=O)c2c(O)ccc(Nc4ccc(C)cc4)c2C3=O)cc1"
answerlabel = "f"

[[record]]
compound = "COc1c(C)c2c(c(O)c1C/C=C(\\C)CCC(=O)O)C(=O)OC2"
answerlabel = "f"

[[record]]
compound = "CN1CCC(CN2c3ccccc3Sc3ccccc32)C1 (stereo not drawn)"
answerlabel = "f"

[[record]]
compound = "CCOC(=O)c1[nH]c(C#N)c(C(=O)OCC)c1C"
answerlabel = "f"


In: Could you kindly confirm the outcome this assay logged for COc1cc2c(c(OC)c1OC)-c1ccc(NCc3ccccc3)c(=O)cc1[C@@H](NC(C)=O)CC2 ?
Out: f

In: Recorded call for CC1(O)CCCCCC1 ?
Out: f

In: Recorded call for CCCCCC[C@@H](O)C/C=C\CCCCCCCC(=O)OCCOC ?
Out: f

In: Record request — test call for COc1cc([C@@H]2c3cc4c(cc3[C@H](OC3OC5COC(c6ccccc6)OC5C(O)C3O)[C@H]3COC(=O)[C@H]23)OCO4)cc(OC)c1OC (stereo partly drawn)
Out: f
